Source listed as ChEMBL document CHEMBL5725459.

Target: C-X-C chemokine receptor type 3 (Homo sapiens, UniProt P49682)
Sequence (P49682 whole entry): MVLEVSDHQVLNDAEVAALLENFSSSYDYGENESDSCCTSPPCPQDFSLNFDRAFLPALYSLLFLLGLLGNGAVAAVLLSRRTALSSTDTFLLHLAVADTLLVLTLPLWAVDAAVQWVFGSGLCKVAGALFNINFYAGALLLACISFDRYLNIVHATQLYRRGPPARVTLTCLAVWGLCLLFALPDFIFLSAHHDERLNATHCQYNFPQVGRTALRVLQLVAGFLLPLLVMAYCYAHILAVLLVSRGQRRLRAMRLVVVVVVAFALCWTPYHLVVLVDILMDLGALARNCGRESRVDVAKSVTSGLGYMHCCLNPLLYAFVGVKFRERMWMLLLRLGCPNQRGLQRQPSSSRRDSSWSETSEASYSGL
Test: Receptor Internalization Assay (RIA): Stock solutions of test compounds are made up at a concentration of 10 mM in DMSO, and serially diluted in PBS containing 0.5% BSA to concentrations required for inhibition dose response curves. Diluted compounds are then mixed with an equal volume of CXCL10 (Peprotech) diluted in PBS. Anticoagulated venous human whole blood is added to the mixture, which is then incubated in a CO2 incubator at 37° C. to allow for ligand mediated receptor internalization (final CXCL10 concentration is 9 nM). After 30 min, the blood is mixed with fluorescently labeled CXCR3 and CD4 specific antibodies (Becton Dickinson) and incubated on ice for 10 minutes. Samples are then mixed with BD FACS Lysing Solution (Becton Dickinson) in order to eliminate red blood cells. After washing the cells with PBS containing 0.5% BSA, the samples are then analyzed in a flow cytometer (FACS Canto II, Becton Dickinson). For data analysis using FACSDiva software (Becton Dickinson), the mean fluorescence corresponding to CXCR3 cell surface expression was determined on CD4 positive cells. The calculated IC50 values may fluctuate depending on the daily assay performance. Fluctuations of this kind are known to those skilled in the art. In the case where IC50 values have been determined several times for the same compound, mean values are given.
propertyLabel: IC50 (nM)

>>> val("CC(C)c1ncn(CC(=O)N2C(C)CNCC2c2sc(C(F)(F)F)cc2-c2cnc(C3CC3)nc2)n1 (stereo unspecified)")
524
>>> val("CC1CNCC(c2sc(C(F)(F)F)cc2-c2cnc(C(F)(F)F)nc2)N1C(=O)Cn1cnc(C(C)(C)O)n1 (stereo unspecified)")
830
>>> val("COCc1ncn(CC(=O)N2C(C)CNCC2c2sc(C(F)(F)F)cc2-c2cnc(C(F)(F)F)nc2)n1 (stereo unspecified)")
606
>>> val("CCCc1ncn(CC(=O)N2C(C)CNCC2c2sc(C(F)(F)F)cc2-c2cnc(C(F)(F)F)nc2)n1 (stereo unspecified)")
221
>>> val("CCOc1ncc(-c2cc(C(F)(F)F)sc2C2CNCC(C)N2C(=O)Cn2cnc(C(C)(C)C)n2)cn1 (stereo unspecified)")
552
>>> val("CC1CNCC(c2sc(C(F)(F)F)cc2-c2cnc(C3CC3)nc2)N1C(=O)Cn1cnc(C(C)(C)C)n1 (stereo unspecified)")
679
>>> val("COCc1ncn(CC(=O)N2C(C)CNCC2c2sc(C(F)(F)F)cc2-c2cnc(C3CC3)nc2)n1 (stereo unspecified)")
1390
>>> val("CC1CNCC(c2sc(C(F)(F)F)cc2-c2cnc(C(F)(F)F)nc2)N1C(=O)Cn1cnc(CO)n1 (stereo unspecified)")
809
>>> val("CCOc1ncc(-c2cc(C(F)(F)F)sc2C2CNCC(C)N2C(=O)Cn2cnc(C(C)C)n2)cn1 (stereo unspecified)")
299
>>> val("CCOc1ncc(-c2cc(C(F)(F)F)sc2C2CNCC(C)N2C(=O)Cn2cnc(C)n2)cn1 (stereo unspecified)")
211
>>> val("CCOc1ncc(-c2cc(C(F)(F)F)sc2C2CNCC(C)N2C(=O)Cn2cnc(CC)n2)cn1 (stereo unspecified)")
235
